Origin of measurements: patent US20190152992A1

# STUDY SYSTEM: human alpha2C receptors (Homo sapiens)
# Sequence (P18825 1-462): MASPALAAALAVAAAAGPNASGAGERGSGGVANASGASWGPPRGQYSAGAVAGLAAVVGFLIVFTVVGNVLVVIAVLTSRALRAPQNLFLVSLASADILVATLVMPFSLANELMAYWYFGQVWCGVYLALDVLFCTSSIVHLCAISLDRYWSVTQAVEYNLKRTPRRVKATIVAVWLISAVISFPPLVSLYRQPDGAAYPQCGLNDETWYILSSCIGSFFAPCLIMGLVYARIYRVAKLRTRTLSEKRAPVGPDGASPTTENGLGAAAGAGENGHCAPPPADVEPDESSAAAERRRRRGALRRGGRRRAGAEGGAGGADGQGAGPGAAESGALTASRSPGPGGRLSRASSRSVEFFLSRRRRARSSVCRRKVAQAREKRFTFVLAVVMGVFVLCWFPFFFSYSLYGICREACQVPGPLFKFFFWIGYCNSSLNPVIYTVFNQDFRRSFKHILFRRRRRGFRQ
# ASSAY TEXT: Determination of alpha2C antagonistic activity in vitro (FLIPR calcium assay)
# EXPERIMENTAL SETUP: Alpha 2C Adrenaline Kb, Kb calculated from IC50 with the Cheng-Prusoff equation; adrenaline as agonist; CHO cells, human alpha2C
Structures can show the parent of a compound that is named as a salt.
VALUE TYPE: Kb (nM)

Before answering, review these 6 worked examples.
[ask] I have this compound here, O=C1C2CCCC2C(=O)N1[C@H]1CCCN(C[C@H]2COc3ccccc3O2)C1 (stereo partly shown) [example 92, hydrochloride] , and I need its recorded Kb.
[reply] 0.02

[ask] I have this compound here, CC(=O)NCC1CN([C@H]2CCCN(C[C@H]3COc4ccccc4O3)C2)C(=O)O1 (stereo partly shown) , and I need its recorded Kb.
[reply] 0.696

[ask] I have this compound here, O=C1c2ccc(F)cc2CN1[C@H]1CCCN(C[C@H]2COc3ccccc3O2)C1 [example 58, hydrochloride] , and I need its recorded Kb.
[reply] 0.03

[ask] I have this compound here, N#Cc1ccc2c(c1)CN([C@H]1CCCN(C[C@H]3COc4ccccc4O3)C1)C2=O , and I need its recorded Kb.
[reply] 0.132

[ask] I have this compound here, O=C1c2cccc(F)c2CN1[C@H]1CCCN(C[C@H]2COc3ccccc3O2)C1 [example 57, hydrochloride] , and I need its recorded Kb.
[reply] 0.15

[ask] I have this compound here, COc1cccc2c1CN([C@H]1CCCN(C[C@H]3COc4ccccc4O3)C1)C2=O , and I need its recorded Kb.
[reply] 0.003

1: O=C1C(=O)N([C@H]2CCCN(C[C@H]3COc4ccccc4O3)C2)C(=O)N1c1ccccc1
2: O=C1c2ncccc2CN1[C@H]1CCCN(C[C@H]2COc3ccccc3O2)C1
3: O=C1CN(C2COC2)C(=O)N1[C@H]1CCCN(C[C@H]2COc3ccccc3O2)C1
4: COc1ccc2c(c1)CN([C@H]1CCCN(C[C@H]3COc4ccccc4O3)C1)C2=O
[ask] Task for the reader: rank each entry by its Kb, from the minimum upward. Give your ranking as a list of the labels in the requested order.
[reply] 4, 1, 2, 3
(4: 0.09 nM, 1: 0.162 nM, 2: 1.05 nM, 3: 13.3 nM)

1: O=C1C(=O)N([C@H]2CCCN(C[C@H]3COc4ccccc4O3)C2)C(=O)N1Cc1ccccc1
2: CN(C)C(=O)CN1CC(=O)N([C@H]2CCCN(C[C@H]3COc4ccccc4O3)C2)C1=O
3: O=C1C2CC2C(=O)N1[C@H]1CCCN(C[C@H]2COc3ccccc3O2)C1 (stereo partly shown)
[ask] Task for the reader: rank each entry by its Kb, from the minimum upward. Give your ranking as a list of the labels in the requested order.
[reply] 2, 3, 1
(2: 0.014 nM, 3: 0.044 nM, 1: 0.165 nM)

====

# STUDY SYSTEM: human alpha2C receptors (Homo sapiens, UniProt P18825)
# ASSAY TEXT: Determination of alpha2C antagonistic activity in vitro (FLIPR calcium assay)
pIC50: −log10 of the molar value. Where a name gives a salt, the structure may show the parent alone.
VALUE TYPE: pIC50

[ask] // map Clc1ccc2ncn([C@H]3CCCN(C[C@H]4COc5ccccc5O4)C3)c2c1 [example 89] to recorded pIC50 (system: human alpha2C receptors (Homo sapiens, UniProt P18825))
[reply] > 10.00

[ask] // map O=C1C(=O)N([C@H]2CCCN(C[C@H]3COc4ccccc4O3)C2)C(=O)N1Cc1ccccn1 [example 142] to recorded pIC50 (system: human alpha2C receptors (Homo sapiens, UniProt P18825))
[reply] 9.07

[ask] // map Cc1nc2ncccc2n1[C@H]1CCCN(C[C@H]2COc3ccccc3O2)C1 [example 157] to recorded pIC50 (system: human alpha2C receptors (Homo sapiens, UniProt P18825))
[reply] 8.79

[ask] // map Cc1nc2ccc(F)cc2n1[C@H]1CCCN(C[C@H]2COc3ccccc3O2)C1 [example 83] to recorded pIC50 (system: human alpha2C receptors (Homo sapiens, UniProt P18825))
[reply] > 10.00

Others:
[ask] // map CN1CC(=O)N([C@H]2CCCN(C[C@H]3COc4ccccc4O3)C2)C1=O [example 103] to recorded pIC50 (system: human alpha2C receptors (Homo sapiens, UniProt P18825))
[reply] 8.50

[ask] // map COc1ccc2c(c1OC)C(=O)N([C@H]1CCCN(C[C@H]3COc4ccccc4O3)C1)C2=O [example 66, hydrochloride] to recorded pIC50 (system: human alpha2C receptors (Homo sapiens, UniProt P18825))
[reply] > 11.00

[ask] // map O=C1N(Cc2ccccc2)CCN1[C@H]1CCCN(C[C@H]2COc3ccccc3O2)C1 [example 50] to recorded pIC50 (system: human alpha2C receptors (Homo sapiens, UniProt P18825))
[reply] > 10.00

[ask] // map O=c1[nH]c2cc(F)ccc2n1[C@H]1CCCN(C[C@H]2COc3ccccc3O2)C1 [example 88] to recorded pIC50 (system: human alpha2C receptors (Homo sapiens, UniProt P18825))
[reply] > 10.00

====

# STUDY SYSTEM: human alpha2C receptors (Homo sapiens, UniProt P18825)
# ASSAY TEXT: Determination of alpha2C antagonistic activity in vitro (FLIPR calcium assay)
pIC50: −log10 of the molar value.
VALUE TYPE: pIC50

1: CC(C)CN1CC(=O)N([C@H]2CCCN(C[C@H]3COc4ccccc4O3)C2)C1=O
2: CN(C)CCN1C(=O)C(=O)N([C@H]2CCCN(C[C@H]3COc4ccccc4O3)C2)C1=O
3: O=C1C(=O)N([C@H]2CCCN(C[C@H]3COc4ccccc4O3)C2)C(=O)N1c1ccccc1
[ask] Hey, quick one: sort these by pIC50, largest value first please. Give your ranking as a list of the labels in the requested order.
[reply] 1, 3, 2
(1: 9.55, 3: 8.80, 2: 6.35)

====

# STUDY SYSTEM: human alpha2A receptors (Homo sapiens)
# Sequence (P08913 1-465): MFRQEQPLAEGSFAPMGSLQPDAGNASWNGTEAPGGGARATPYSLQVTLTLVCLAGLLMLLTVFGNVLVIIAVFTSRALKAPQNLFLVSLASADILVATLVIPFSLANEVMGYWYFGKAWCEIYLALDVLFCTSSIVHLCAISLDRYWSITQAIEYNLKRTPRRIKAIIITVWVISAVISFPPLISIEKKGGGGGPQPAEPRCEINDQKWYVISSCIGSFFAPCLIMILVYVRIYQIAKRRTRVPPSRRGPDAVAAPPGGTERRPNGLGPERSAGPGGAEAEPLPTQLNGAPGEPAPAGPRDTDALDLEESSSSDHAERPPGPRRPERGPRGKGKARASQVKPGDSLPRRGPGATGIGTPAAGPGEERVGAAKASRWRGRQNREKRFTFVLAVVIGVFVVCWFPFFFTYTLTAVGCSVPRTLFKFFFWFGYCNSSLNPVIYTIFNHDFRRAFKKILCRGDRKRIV
# ASSAY TEXT: cell-based
Where a name gives a salt, the structure may show the parent alone.
Form field: IC50 (one value per entry).

Before answering, review these 5 worked examples.
[ask] I have this compound here, COc1ccccc1C1=CC(=O)N([C@H]2CCCN(C[C@H]3COc4ccccc4O3)C2)C1 [example 43, formate] , and I need its recorded IC50.
[reply] > 10 µM

[ask] I have this compound here, COc1cccc2c1C(=O)N([C@H]1CCCN(C[C@H]3COc4ccccc4O3)C1)C2=O , and I need its recorded IC50.
[reply] > 10 µM

[ask] I have this compound here, C[C@@H](c1ccccc1)N1C(=O)C(=O)N([C@H]2CCCN(C[C@H]3COc4ccccc4O3)C2)C1=O , and I need its recorded IC50.
[reply] 0.807 µM

[ask] I have this compound here, CN(C)CCN1C(=O)C(=O)N([C@H]2CCCN(C[C@H]3COc4ccccc4O3)C2)C1=O , and I need its recorded IC50.
[reply] > 10 µM

[ask] I have this compound here, COc1ccc2c(c1)C(=O)N([C@H]1CCCN(C[C@H]3COc4ccccc4O3)C1)C2 , and I need its recorded IC50.
[reply] > 10 µM

Others:
[ask] I have this compound here, CC1(c2ccccc2)NC(=O)N([C@H]2CCCN(C[C@H]3COc4ccccc4O3)C2)C1=O (stereo partly shown) , and I need its recorded IC50.
[reply] 0.013 µM

[ask] I have this compound here, O=C1N(c2ccccc2)CCN1[C@H]1CCCN(C[C@H]2COc3ccccc3O2)C1 , and I need its recorded IC50.
[reply] > 10 µM

[ask] I have this compound here, O=C1C(=O)N([C@H]2CCCN(C[C@H]3COc4ccccc4O3)C2)C(=O)N1C1CCNCC1 [example 137, dihydrochloride] , and I need its recorded IC50.
[reply] > 10 µM

[ask] I have this compound here, COc1ccc2c(c1)CN([C@H]1CCCN(C[C@H]3COc4ccccc4O3)C1)C2=O , and I need its recorded IC50.
[reply] > 10 µM

[ask] I have this compound here, Cc1nc2ccccc2n1[C@H]1CCCN(C[C@H]2COc3ccccc3O2)C1 , and I need its recorded IC50.
[reply] 4.48 µM

[ask] I have this compound here, CCC1(CC)OC(=O)N([C@H]2CCCN(C[C@H]3COc4ccccc4O3)C2)C1=O , and I need its recorded IC50.
[reply] 1.3 µM

[ask] I have this compound here, CC1(C)CCN([C@H]2CCCN(C[C@H]3COc4ccccc4O3)C2)C1=O , and I need its recorded IC50.
[reply] > 10 µM

[ask] I have this compound here, Fc1ccc2ncn([C@H]3CCCN(C[C@H]4COc5ccccc5O4)C3)c2c1 , and I need its recorded IC50.
[reply] > 10 µM

[ask] I have this compound here, O=S1(=O)Nc2ccccc2N1[C@H]1CCCN(C[C@H]2COc3ccccc3O2)C1 , and I need its recorded IC50.
[reply] 7.19 µM

[ask] I have this compound here, C[C@H]1C(=O)N([C@H]2CCCN(C[C@H]3COc4ccccc4O3)C2)C(=O)[C@@H]1C , and I need its recorded IC50.
[reply] > 10 µM

[ask] I have this compound here, O=C1C2C3C=CC(C3)C2C(=O)N1[C@H]1CCCN(C[C@H]2COc3ccccc3O2)C1 (stereo partly shown) , and I need its recorded IC50.
[reply] 6.86 µM
